Source listed as paper PMC4336329.

- test_target: human ether-à-go-go-related gene (hERG) potassium channel (human, UniProt Q12809);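 note: peak tail current of the secondary pulse compared with the same well before compound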
- Sequence (Q12809 whole entry, looked up): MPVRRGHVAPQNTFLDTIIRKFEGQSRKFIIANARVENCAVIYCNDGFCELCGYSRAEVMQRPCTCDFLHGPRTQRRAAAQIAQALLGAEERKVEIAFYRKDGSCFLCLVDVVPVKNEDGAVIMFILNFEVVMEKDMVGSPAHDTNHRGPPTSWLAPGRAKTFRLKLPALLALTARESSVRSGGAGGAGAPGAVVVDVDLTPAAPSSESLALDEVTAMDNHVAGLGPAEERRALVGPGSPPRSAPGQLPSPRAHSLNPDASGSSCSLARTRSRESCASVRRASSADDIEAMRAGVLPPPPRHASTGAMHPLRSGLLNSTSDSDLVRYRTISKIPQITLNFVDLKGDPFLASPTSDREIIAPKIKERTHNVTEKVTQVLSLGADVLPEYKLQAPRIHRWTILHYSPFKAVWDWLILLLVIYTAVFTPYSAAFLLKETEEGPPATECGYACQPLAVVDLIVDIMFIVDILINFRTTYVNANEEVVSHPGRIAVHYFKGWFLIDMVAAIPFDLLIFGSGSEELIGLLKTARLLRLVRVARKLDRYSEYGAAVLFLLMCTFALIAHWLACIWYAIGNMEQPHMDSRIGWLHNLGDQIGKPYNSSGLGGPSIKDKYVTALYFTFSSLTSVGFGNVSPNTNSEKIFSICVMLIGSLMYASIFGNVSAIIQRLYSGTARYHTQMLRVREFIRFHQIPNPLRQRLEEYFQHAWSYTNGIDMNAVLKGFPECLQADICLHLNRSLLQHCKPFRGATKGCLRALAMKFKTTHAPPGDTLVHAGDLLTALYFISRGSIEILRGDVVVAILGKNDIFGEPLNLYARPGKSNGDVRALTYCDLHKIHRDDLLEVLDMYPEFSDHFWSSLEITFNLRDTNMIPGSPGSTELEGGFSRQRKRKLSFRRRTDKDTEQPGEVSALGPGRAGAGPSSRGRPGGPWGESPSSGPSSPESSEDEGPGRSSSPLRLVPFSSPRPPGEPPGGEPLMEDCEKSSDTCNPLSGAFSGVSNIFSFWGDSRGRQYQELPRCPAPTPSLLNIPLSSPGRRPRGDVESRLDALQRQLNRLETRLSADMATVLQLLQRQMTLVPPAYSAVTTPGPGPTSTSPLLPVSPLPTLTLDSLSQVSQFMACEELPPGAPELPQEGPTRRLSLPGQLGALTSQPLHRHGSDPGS
- protocol_details: primary screen, population patch clamp on CHO cells stably expressing hERG; higher = less effect of the substance
The whole screen tested about 310,000 compounds, of which about 14,000 (4.5%) showed an effect of 50% or more. The effect is printed as a negative number. This is one part of a sample in which strong results are shown more often than they occur.
Note to self: values exactly at -10% are Satisfied. So hERG current change (%, negative = inhibition) at 10uM at or above -10% is Satisfied, below is Not satisfied.

compound | category_label
O=C(NC1CCCC1)c1ccc(CSc2nc3ccncc3n2Cc2ccc(F)cc2)cc1 | Not satisfied
COc1ccc(-c2nc(Cn3c(SCc4ccccc4F)nc4ccncc43)c(C)o2)cc1 | Satisfied
COCCNC(=O)c1ccc2c(Cl)c3c(nc2c1)CCC3 | Not satisfied
CCOc1ccccc1NC(=O)CCS(=O)(=O)c1ccc(OC)cc1 | Satisfied
CN1CCN(C(=O)c2ccc(CSc3nc4ccncc4n3Cc3ccc(F)cc3)cc2)CC1 | Satisfied
COc1cc2nc(SCc3ccc(F)cc3)n(Cc3cccs3)c(=N)c2cc1OC | Satisfied
O=C(NCCCN1CCCC1)c1ccc2c(Cl)c3c(nc2c1)CCCC3 | Not satisfied
C[C@@H](C(=O)N[C@@H](Cc1c[nH]c2ccccc12)C(=O)O)n1nnc2ccccc2c1=O | Satisfied
CCC(C)NC(=O)c1ccc(CSc2nc3ccncc3n2Cc2ccc(F)cc2)cc1 (centres unmarked) | Not satisfied
CCOC(=O)N1CCN(CCC(=O)c2ccc(Br)cc2)CC1.Cl | Not satisfied
CCOC(=O)N1CCC(NC(=O)c2ccc3c(Cl)c4c(nc3c2)CCCC4)CC1 | Not satisfied
Cn1ccc(C(=O)NC(=S)N2CCSCC2)n1 | Satisfied
CCCN1CCN(CCCNC(=O)c2ccc3c(Cl)c4c(nc3c2)CCCC4)CC1 | Not satisfied
Cc1cccc(CSc2nc3ccncc3n2CC(=O)Nc2cc(C)cc(C)c2)c1 | Satisfied
CCN(CC)CCCNC(=O)c1ccc2c(Cl)c3c(nc2c1)CCCC3 | Not satisfied
CC(C)CCNC(=O)c1ccc2c(Cl)c3c(nc2c1)CCC3 | Satisfied
COc1cccc(NC(=O)CCN2CCN(c3ccccc3F)CC2)c1 | Not satisfied
CC1CCN(CCCNC(=O)c2ccc3c(Cl)c4c(nc3c2)CCCC4)CC1 | Not satisfied
CC(=O)C(C)n1c(CN(C)Cc2ccccc2)nc2c1c(=O)n(C)c(=O)n2C (centres unmarked) | Satisfied
CCOC(=O)N1CCN(CCC(=O)c2ccc(Cl)cc2)CC1.Cl | Not satisfied

====

- test_target: human ether-à-go-go-related gene (hERG) potassium channel (human, UniProt Q12809);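 note: peak tail current of the secondary pulse compared with the same well before compound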
- protocol_details: primary screen, population patch clamp on CHO cells stably expressing hERG; higher = less effect of the substance
- Description: Briefly, Chinese hamster ovary (CHO) cells stably expressing the hERG channel were dislodged from tissue culture flasks and dispensed into PPC plates. […] During the recording, background leak currents were estimated by a 100 ms step to -80 mV from an initial holding potential of -70 mV and subtracted from the subsequent current measurement. The campaign was conducted in two phases using slight differences in recording protocol. […]
Hit rate of the full screen: of about 310,000 compounds, about 14,000 (4.5%) showed an effect of 50% or more. Effects have a minus sign here. Many of the other results were omitted from the sample, so strong results are more common in it than they were.
Entries and their hERG current change (%, negative = inhibition) at 10uM values follow.
observable: hERG current change (%, negative = inhibition) at 10uM (%)

compound | numeric_value
COc1ccc(N(C(C)C(=O)N/N=C/c2cccnc2)S(C)(=O)=O)cc1 (stereo not shown) | -3.44
COc1ccc(NC(=O)CSc2nc3ccccc3c(=O)n2Cc2cccs2)c(OC)c1 | -6.23
COc1ccccc1NC(=O)CSc1nnc(Cc2cccs2)n1C | 5.99
O=C(NCc1ccccn1)c1cccc(S(=O)(=O)Nc2ccccc2Cl)c1 | -2.4
COc1ccc(N(C(C)C(=O)N/N=C/c2ccc(OCC(C)C)cc2)S(C)(=O)=O)cc1 (stereo not shown) | -9.12
Cc1nnc2ccc(N3CCN(C(=O)c4ccccc4)CC3)nn12 | -0.844
CCn1cc2nc(SCC(=O)Nc3ccccc3F)n(Cc3ccccc3)c(=O)c2n1 | -70.6
COc1ccc(CNS(=O)(=O)c2cc(-c3cc(C)no3)ccc2C(C)C)cc1 | -14.9
COc1ccc(/C=N/NC(=O)C(C)N(c2ccc(OC)cc2)S(C)(=O)=O)cc1 (stereo not shown) | -8.54
O=C(Nc1ccc2c(c1)OCO2)c1c(F)cccc1F | 3.95
O=C(CSc1nc2nccnc2c(=O)n1Cc1cccs1)Nc1ccccc1 | -74.9
O=C(O)c1ccc(Nc2cccc(F)c2)c([N+](=O)[O-])c1 | 17.7
COc1ccccc1NC(=O)CSc1nc2nccnc2c(=O)n1Cc1cccs1 | -69.9
Cc1ccc(S(=O)(=O)NCc2ccc(C(=O)N3CCN(c4ccccn4)CC3)cc2)cc1 | -33.6
CC(C)CCn1c(SCC(=O)Nc2ccccc2C(F)(F)F)nc2nccnc2c1=O | -21.6
COc1ccc(N(C(C)C(=O)N/N=C/c2ccc(OC(C)C)cc2)S(C)(=O)=O)cc1 (stereo not shown) | -52.4
CCOc1ccc(NC(=O)CSc2nc3ccccc3c(=O)n2Cc2cccs2)cc1 | 13.6
Cc1ccc(NC(=S)N(CCN2CCOCC2)Cc2ccccc2F)cc1Cl | -12.3
Cn1c(Cc2cccs2)nnc1SCC(=O)Nc1ccccc1F | 1.93

====

- test_target: human ether-à-go-go-related gene (hERG) potassium channel (human, UniProt Q12809);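 note: peak tail current of the secondary pulse compared with the same well before compound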
- protocol_details: primary screen, population patch clamp on CHO cells stably expressing hERG; higher = less effect of the substance
About 14,000 (4.5%) of roughly 310,000 compounds showed an effect of 50% or more. Effects have a minus sign here. Only a selection was taken, and strong results are over-represented in it overall.
Rule: Met for hERG current change (%, negative = inhibition) at 10uM not less than -20%, Not met for anything less.

compound | test_target | category_label
C=CCn1c(SC2CCOC2=O)nc2sc(C)c(C)c2c1=O (stereo not drawn) | human ether-à-go-go-related gene (hERG) potassium channel (human, UniProt Q12809) | Met
CC(C)n1c(N2CCN(CC(=O)NCc3cccs3)CC2)nc2ccccc21 | human ether-à-go-go-related gene (hERG) potassium channel (human, UniProt Q12809) | Not met
C=CCn1c(SC(C)C#N)nc2sc(CC)cc2c1=O (stereo not drawn) | human ether-à-go-go-related gene (hERG) potassium channel (human, UniProt Q12809) | Not met
O=C1CC2(CCN(C(=O)COc3ccccc3F)CC2)Oc2ccccc21 | human ether-à-go-go-related gene (hERG) potassium channel (human, UniProt Q12809) | Not met
CCOC(=O)C1(Cc2ccccc2C)CCCN(C(=O)CN2CCCCC2=O)C1 (stereo not drawn) | human ether-à-go-go-related gene (hERG) potassium channel (human, UniProt Q12809) | Met
COc1ccccc1OCC(=O)N1CCC2(CC1)CC(=O)c1ccccc1O2 | human ether-à-go-go-related gene (hERG) potassium channel (human, UniProt Q12809) | Not met
C=CCn1c(SC2CCOC2=O)nc2sc(CC)cc2c1=O (stereo not drawn) | human ether-à-go-go-related gene (hERG) potassium channel (human, UniProt Q12809) | Not met
O=C1OCCC1Sc1nnc(-c2cccs2)n1Cc1ccccc1 (stereo not drawn) | human ether-à-go-go-related gene (hERG) potassium channel (human, UniProt Q12809) | Not met
O=C(NCCc1ccco1)C(=O)NCC1OCCCN1S(=O)(=O)c1ccccc1 (stereo not drawn) | human ether-à-go-go-related gene (hERG) potassium channel (human, UniProt Q12809) | Met
CC(C)n1c(NCc2cccs2)nc2ccccc21 | human ether-à-go-go-related gene (hERG) potassium channel (human, UniProt Q12809) | Met
C=CCn1c(SCC2CCCCO2)nc2sc(CC)cc2c1=O (stereo not drawn) | human ether-à-go-go-related gene (hERG) potassium channel (human, UniProt Q12809) | Met
CCC(Oc1ccccc1)C(=O)N1CCC(C(N)=O)CC1 (stereo not drawn) | human ether-à-go-go-related gene (hERG) potassium channel (human, UniProt Q12809) | Met
CC(=O)N1CCC2(CC1)CC(=O)c1cc(OCC(=O)N3CCC4(CC3)OCCO4)ccc1O2 | human ether-à-go-go-related gene (hERG) potassium channel (human, UniProt Q12809) | Met
CCN1CCN(C(=O)COc2ccc3c(c2)C(=O)CC2(CCN(C(C)=O)CC2)O3)CC1 | human ether-à-go-go-related gene (hERG) potassium channel (human, UniProt Q12809) | Met
C/C(=N\NS(=O)(=O)c1cccc([N+](=O)[O-])c1)c1cc2ccccc2o1 | human ether-à-go-go-related gene (hERG) potassium channel (human, UniProt Q12809) | Met
CC(C)(C)NC(=O)Cn1c(SCC(=O)NCc2cccs2)nc2ccccc21 | human ether-à-go-go-related gene (hERG) potassium channel (human, UniProt Q12809) | Met
CC1CCCCN1c1ncnc2ccccc12.Cl (stereo not drawn) | human ether-à-go-go-related gene (hERG) potassium channel (human, UniProt Q12809) | Met
C=CCn1c(SCc2cc(=O)n3ccsc3n2)nc2scc(C3CC3)c2c1=O | human ether-à-go-go-related gene (hERG) potassium channel (human, UniProt Q12809) | Met
NC(=S)N/N=C1\CC(c2ccc3c(c2)OCCCO3)Oc2ccc(F)cc21 (stereo not drawn) | human ether-à-go-go-related gene (hERG) potassium channel (human, UniProt Q12809) | Met
